# experimental.system: T1, memapsin 2 (Homo sapiens, UniProt P56817)
# T1 construct: pET-11 vector-derived residues 1-15 of promemapsin 2-T1 (N, cleaved yes); made in house; host or cells: E. coli
# T1 sequence (P56817 41-454 limits assumed): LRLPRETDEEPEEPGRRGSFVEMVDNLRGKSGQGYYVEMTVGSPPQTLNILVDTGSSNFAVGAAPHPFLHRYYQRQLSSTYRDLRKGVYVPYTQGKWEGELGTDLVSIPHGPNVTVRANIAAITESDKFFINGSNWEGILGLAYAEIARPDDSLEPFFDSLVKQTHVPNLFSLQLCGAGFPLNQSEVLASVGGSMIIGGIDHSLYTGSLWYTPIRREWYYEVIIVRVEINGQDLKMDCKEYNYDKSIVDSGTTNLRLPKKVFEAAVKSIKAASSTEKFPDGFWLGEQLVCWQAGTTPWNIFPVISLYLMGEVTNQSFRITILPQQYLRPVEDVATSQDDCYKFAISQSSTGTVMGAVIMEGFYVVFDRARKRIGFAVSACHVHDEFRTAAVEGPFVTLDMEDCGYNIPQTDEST
# protocol: Inhibition of memapsin 2 proteolytic activity, fluorogenic substrate FS-2
# Format: biochemical
# measurement.context: ratio of % inhibition memapsin 1 / memapsin 2; 1 or less = greater inhibition of memapsin 2
Form field: % Inh (M1/M2) (one value per entry).
parameter.measured: % Inh (M1/M2)

>>> print(df.to_string())
                                   compound  parameter_measured  recorded_result
0  CSCC[C@H](NC(=O)OCCn1nc(C)cc1C)C(=O)N[C@@H](CC(C)C)[C@@H](O)C[C@@H](C)C(=O)N[C@@H](CC(C)C)C(=O)NCC(C)C [MMI-176]       % Inh (M1/M2)                0
1  CSCC[C@H](NC(=O)OCn1nc(C)cc1C)C(=O)N[C@@H](CC(C)C)[C@@H](O)C[C@@H](C)C(=O)N[C@H](C(=O)NC(C)C)C(C)C [MMI-165]       % Inh (M1/M2)             0.45
2  CSCC[C@H](NC(=O)OCn1nc(C)cc1C)C(=O)N[C@@H](CC(C)C)[C@@H](O)C[C@]1(C)CCN([C@@H](CC(C)C)C(=O)NCC(C)C)C1=O [MMI-181]       % Inh (M1/M2)             0.19

----------
# experimental.system: T1, memapsin 2 (Homo sapiens, UniProt P56817)
# T1 construct: pET-11 vector-derived residues 1-15 of promemapsin 2-T1 (N, cleaved yes); made in house; host or cells: E. coli
# protocol: Inhibition of memapsin 2 proteolytic activity, fluorogenic substrate FS-2
# Format: biochemical
# measurement.context: memapsin 2; independent of substrate, converted from Ki apparent
parameter.measured: Ki

>>> df
                            compound_smiles  recorded_result
0  CSCC[C@H](NC(=O)[C@@H](NC(=O)OC(C)(C)C)C(C)C)C(=O)N[C@@H](CC(C)C)[C@@H](O)C[C@]1(C)CCN([C@@H](CC(C)C)C(=O)NCC(C)C)C1=O             N.I.
1  CSCC[C@H](NC(=O)[C@@H](NC(=O)OC(C)(C)C)C(C)C)C(=O)N[C@@H](CC(C)C)[C@@H](O)C[C@@H](C)C(=O)N[C@@H]1c2ccccc2C[C@@H]1O             N.I.
2  CSCC[C@H](NC(=O)[C@@H](NC(=O)OC(C)(C)C)C(C)C)C(=O)N[C@@H](CC(C)C)[C@@H](O)C[C@@H](C)C(=O)N[C@H](COCc1ccccc1)C(C)C             N.I.
3  CSCC[C@H](NC(=O)[C@@H](NC(=O)OC(C)(C)C)C(C)C)C(=O)N[C@@H](CC(C)C)[C@@H](O)C[C@@H](C)C(=O)N1CCC[C@H]1C(=O)NCc1ccccc1             N.I.
4  CSCC[C@H](NC(=O)[C@@H](NC(=O)OC(C)(C)C)C(C)C)C(=O)N[C@@H](CC(C)C)[C@@H](O)C[C@]1(C)CCN([C@H](C(=O)NCC(C)C)C(C)C)C1=O             N.I.
